method: In vivo pharmacokinetics after a single dose, dog
experimental conditions: male, plasma; Beagle dog, 1 mg/kg IV single dose; read-out: Vss
outcome measure: Vd (L/kg)
Report only the number, with the unit L/kg understood.

Item: CC(=O)N1CCn2c(C3CCOCC3)nc(-c3cccc4cc(-c5cnc(C)s5)ncc34)c2C1 | Vd: 3.38

====

target desc: BRD4 (49-170) bromodomain (Homo sapiens, UniProt O60885)
Construct: The GST tagged bromodomains of CBP (1081-1197) and BRD4 (49-170) were obtained from BPS Bioscience
method: BRD4 AlphaScreen assay
experimental conditions: binding to biotin-H4 (1-21) Ac-K5/8/12/16
Friendly reminder: IC50 below 20 µM is Yes, at or above is No.

Item CNC(=O)c1ccc(-c2cc3cccc(-c4nc(C5CCOCC5)n5c4CN(C(C)=O)CC5)c3cn2)cn1 [Compound 3] : IC50 beneath 20 µM, strictly?
Yes

Criterion: IC50 strictly below 20 µM. Is it met by CC(=O)N1CCn2c(C3CCOCC3)nc(-c3c(F)ccc4cc(-c5cnc(C)s5)ncc34)c2C1 [Compound 6] ?
No

API: query returns whether the compound falls strictly under 20 µM in IC50. Query: CC(=O)N1CCn2c(C3CCOCC3)nc(-c3cccc4cc(-c5cnc(C)s5)ncc34)c2C1 [Compound 1]
Yes

In the record for CNC(=O)c1ccc(-c2cc3cccc(-c4nc(C5CC5)n5c4CN(C(C)=O)CC5)c3cn2)cn1 [Compound 2] , is IC50 less than 20 µM?
No

Lab log: compare recorded IC50 with 20 µM; is it strictly lower for CNC(=O)c1ccc(-c2cc3cccc(-c4nc(C56CCC(CC5)OC6)n5c4CN(C(C)=O)CC5)c3cn2)cn1 [Compound 4] ?
Yes
